# reported Neut IC50 (ug/ml) subtype B; entries follow
Target Or Test System: RSV F on recombinant mKate-RSV B 18537 virus (Respiratory syncytial virus B 18537, UniProt P13843 26-574)
Sequence (P13843 26-574): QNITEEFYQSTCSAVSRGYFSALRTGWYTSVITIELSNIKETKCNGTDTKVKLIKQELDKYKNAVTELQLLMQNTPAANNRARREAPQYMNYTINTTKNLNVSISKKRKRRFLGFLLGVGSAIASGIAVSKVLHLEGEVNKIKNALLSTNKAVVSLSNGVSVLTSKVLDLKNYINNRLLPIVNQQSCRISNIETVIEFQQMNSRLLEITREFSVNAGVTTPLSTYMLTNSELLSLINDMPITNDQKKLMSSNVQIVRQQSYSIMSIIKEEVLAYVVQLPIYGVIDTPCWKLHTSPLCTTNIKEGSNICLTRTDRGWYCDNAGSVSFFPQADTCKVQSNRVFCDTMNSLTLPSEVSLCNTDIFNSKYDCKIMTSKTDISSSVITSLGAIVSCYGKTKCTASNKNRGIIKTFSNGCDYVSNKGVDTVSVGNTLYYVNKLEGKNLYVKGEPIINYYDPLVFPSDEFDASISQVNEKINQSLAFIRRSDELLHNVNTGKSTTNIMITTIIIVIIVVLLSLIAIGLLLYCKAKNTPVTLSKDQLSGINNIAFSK
Measurement Description: cell-based or functional assay
Observable: Neut IC50 (ug/ml) subtype B

INSERT INTO measurements (binder, observable, reported_result) VALUES
  ('ADI-21081 (antibody, V domains shown, also called Ab 326) VH: EVQLLESGGGLVKPGGSLRLSCAASRFAFSNYYMTWIRQAPGKGLEWISNISGGSTFTNYADSVKGRFTISRDNAKNSVHLQMNSLRAEDTAVYYCVREASVAAGTPEGFDIWGQGTMVTVSS VL: QSVLTQPPSVSGAPGQRVIISCTGSSSNIGAGYDVNWYQQLPGTAPKLLMYGNRNRASGVPDRFSGSKSGTSASLAITGLQAEDEADYYCHSYDSSLGGSVFGGGTKLTVL', 'Neut IC50 (ug/ml) subtype B', '0.32 µg/mL'),
  ('ADI-21080 (antibody, V domains shown) VH: EVQLLESGGGLVKPGGSLRLSCEVSGFRLSDYYMSWIRQAPGKGLEWVSHISGGSTYTNYADSVKGRFTISRDNGKKSMYLQMNSLRAEDTALYYCAKWGSGGPEAFDIWGRGTMVTVSS VL: QSALIQPPSVSGAPGQRVTISCTGSSSNIGAGYDVHWYQQIPGTAPKLLIYGNNNRPSGVPDRFSGSKSGTSASLAITGLQAEDEADYYCQSYDNSLSGSVVFGGGTKLTVL', 'Neut IC50 (ug/ml) subtype B', '0.17 µg/mL'),
  ('ADI-21072 (antibody, V domains shown) VH: QVQLVQSGGGLVKPGGSLRLSCEASGFNFRSYHMSWVRQAPGKGLEWVSSITAGSSYINYADSVKGRFTISRDNAKNSVFLQMNSLSAEDTAVYYCAREGLNMGVGGTWFDPWGQGTLVTVSS VL: QAVVTQEPSVSGAPGQRVTISCTGSSSNIGAGYDVHWYQQLPGTAPKLLIYGNNNRPSGVPDRFSGSKSATSASLAITGLQADDEADYYCQSYDRSLSGSWVFGTGTKVTVL', 'Neut IC50 (ug/ml) subtype B', '0.33 µg/mL');
